- assay info: Cryo-TEM of dendrimersomes from glycerol-JDs, number of vesicle layers
- Assay type: physicochemical
- reported conditions: vesicles with 5 layers
reported endpoint: Number of vesicle layers: 5 (count of vesicles)
Give the figure by itself; no unit, no explanation.

Task item: So what does the record say about Number of vesicle layers: 5 (count of vesicles) for CCCCCCCCCCCCOc1cc(OCCCCCCCCCCCC)cc(C(=O)OC[C@H](COC(=O)C(C)(COC(=O)c2cc(OCCOCCOCCOC)c(OCCOCCOCCOC)c(OCCOCCOCCOC)c2)COC(=O)c2cc(OCCOCCOCCOC)c(OCCOCCOCCOC)c(OCCOCCOCCOC)c2)OC(=O)c2cc(OCCCCCCCCCCCC)cc(OCCCCCCCCCCCC)c2)c1 [Compound 1R, (3,5)-12G1-GC-(R)-BMPA-(3,4,5)-3EO-G1] ?
Reply: 1

Task item: Query: Number of vesicle layers: 5 (count of vesicles); subject: CCCCCCCCCCCCOc1cc(OCCCCCCCCCCCC)cc(C(=O)OCC(C)(COC(=O)c2cc(OCCCCCCCCCCCC)cc(OCCCCCCCCCCCC)c2)C(=O)OC[C@H](COC(=O)c2cc(OCCOCCOCCOC)c(OCCOCCOCCOC)c(OCCOCCOCCOC)c2)OC(=O)c2cc(OCCOCCOCCOC)c(OCCOCCOCCOC)c(OCCOCCOCCOC)c2)c1 [Compound 2S, (3,5)-12G1-BMPA-GC-(S)-(3,4,5)-3EO-G1]
Reply: 0

***
Task item: Look up Number of vesicle layers: 5 (count of vesicles) for this compound: CCCCCCCCCCCCOc1cc(OCCCCCCCCCCCC)cc(C(=O)OCC(COC(=O)C(C)(COC(=O)c2cc(OCCOCCOCCOC)c(OCCOCCOCCOC)c(OCCOCCOCCOC)c2)COC(=O)c2cc(OCCOCCOCCOC)c(OCCOCCOCCOC)c(OCCOCCOCCOC)c2)OC(=O)c2cc(OCCCCCCCCCCCC)cc(OCCCCCCCCCCCC)c2)c1 (racemic) [Compound 1rac, (3,5)-12G1-GC-(rac)-BMPA-(3,4,5)-3EO-G1]
Reply: 1

Task item: Quick one: Number of vesicle layers: 5 (count of vesicles) for CCCCCCCCCCCCOc1cc(OCCCCCCCCCCCC)cc(C(=O)OCC(C)(COC(=O)c2cc(OCCCCCCCCCCCC)cc(OCCCCCCCCCCCC)c2)C(=O)OC[C@@H](COC(=O)c2cc(OCCOCCOCCOC)c(OCCOCCOCCOC)c(OCCOCCOCCOC)c2)OC(=O)c2cc(OCCOCCOCCOC)c(OCCOCCOCCOC)c(OCCOCCOCCOC)c2)c1 [Compound 2R, (3,5)-12G1-BMPA-GC-(R)-(3,4,5)-3EO-G1] ?
Reply: 3
